- assay: chemical genetic growth profiling, strain panel (AID 1159580);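 note: tested at 20 µM; growth read once vehicle control cultures reached saturation at 30 °C; 1 = growth at the plate median or of vehicle wells; lower values mean less growth of the strain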
- run.parameters: S. cerevisiae deletion strains, growth OD, locus YGL248W, strain PDE1, stronger effect = lower value
The campaign covered roughly 5,500 compounds. About 2,000 (36%) were called active. Roughly 18% stayed inconclusive and do not appear here. The list shows a part of the results.
Listed next: entries and their corresponding normalized growth.
Lab note: record the figure alone, no unit after it.

Value lookup for normalized growth; key = CCOC(=O)C1=C(C)NC(C)=C(C(=O)OC)C1c1cccc([N+](=O)[O-])c1 (stereo unspecified)
0.998

Would you mind doing "N#Cc1ccc2c(c1)N(CCCN1CCC(O)CC1)c1ccccc1S2" as well?
1.01

What would you report for "CCCCCN=C(N)N/N=C\c1c[nH]c2ccc(OC)cc12" ?
1

What do you have for "CCNc1nc(Cl)nc(NC(C)C)n1" ?
1.01

Entry to check: "OCCN1CCN(CCCN2c3ccccc3Sc3ccc(Cl)cc32)CC1"
1.02

From here, focus on the item given below.
Which normalized growth is listed for "CCS(=O)(=O)CCn1c([N+](=O)[O-])cnc1C" ?
1

All values here come from PubChem BioAssay AID1159580.
